Test: in vitro
Settings: human, hela cells, % viability
A collection of compounds and their measured viability at 28.5 h, 10 µM

| compound | viability at 28.5 h, 10 µM / % |
| --- | --- |
| CCN(CC)C(=O)CN(CCc1ccc(OC)c(OC)c1)C(=O)NCCN1CCOCC1 [CBK158734] | 93.1 |
| COc1ccc2c(CCNC(=O)C(c3ccccc3)c3ccccc3)c[nH]c2c1 [CBK269294] | 81.3 |
| CC(C)CN1CCC[C@H]1c1nc(-c2ccc(-n3ccnc3)nc2)no1 [CBK288894] | 88.5 |
| COc1ccc(N(C(C)C(=O)N/N=C2\C(=O)Nc3ccccc32)S(C)(=O)=O)cc1 (stereo not shown) [CBK262408] | 98.5 |
| CCOC(=O)c1c(C)n(-c2ccccc2)c2ccc(O)c(CN(C)C)c12 [CBK261593C] | 91 |
| CC(C)CCNC(=O)N1CCN(Cc2ccccc2)CC1 [CBK155657] | 87.2 |
| CN1CCN(CCCCC2(C)SC(NC3CCCCCC3)=NC2=O)CC1 (stereo not shown) [CBK113259] | 93.3 |
| O=C(c1sccc1NS(=O)(=O)c1ccc(Oc2ccccc2)cc1)N1CCOCC1 [CBK050423] | 95.3 |
| CCOc1ccc(NC(=O)C2C3C=CC(O3)C2C(=O)O)cc1 (stereo not shown) [CBK261592] | 91.7 |
| O=C(CCC1CCCCC1)N1CCC(c2n[nH]cc2C(=O)N2CCc3ccccc3C2)CC1 [CBK286271] | 95.4 |
| Fc1ccc(CNc2c(-c3cccs3)nc3cnccn23)cc1 [CBK283487] | 112 |
| Cc1ccc(C(=O)O)cc1S(=O)(=O)N1CCC(C(=O)O)CC1 [CBK267327] | 107 |
| CC(NC(=O)c1ncoc1-c1ccccc1)c1ccccn1 (stereo not shown) [CBK283889] | 92.6 |
| N/C(=N\OCC(=O)Nc1cccc([N+](=O)[O-])c1)c1nonc1N [CBK262044] | 90 |
| CCN(CC)CCn1c(NC(=O)c2c(Cl)nc3ccccn23)nc2ccccc21 [CBK298305] | 107 |
| CCOC(=O)CC1C(=O)NCCN1C/C=C/c1ccccc1 (stereo not shown) [CBK269922] | 90.7 |
| COc1ccccc1C1(NC(=O)CCn2cccn2)CCCC1 [CBK283626] | 103 |
| COc1ccc(OC)c(NC(=O)CSc2nnc(-c3ccco3)o2)c1 [CBK267429] | 98.3 |
| Cc1nc(C)n(CC2CCCCN2Cc2cn3ccccc3n2)n1 (stereo not shown) [CBK304008] | 111 |

====

Test: in vitro
Conditions: human, hela cells, % viability

| compound | unitAbbreviation | viability at 28.5 h, 10 µM |
| --- | --- | --- |
| CC(=O)N[C@H]1CO[C@H]2[C@@H]1OC[C@@H]2Nc1nccc(-c2cccc(F)c2)n1 | % | 99.3 |
| Cc1ccccc1OCCNS(=O)(=O)c1cccc([N+](=O)[O-])c1 | % | 106 |
| CC1CCc2onc(C(=O)NCc3nccn3C)c2C1 (stereo not shown) | % | 68.9 |
| CN1CCC2(CCC1=O)CC(N)c1ccccc1O2 (stereo not shown) | % | 103 |
| O=C(CSCc1nc2ccccc2[nH]1)Nc1ccc2ccccc2c1 | % | 90.5 |
| COc1ccccc1N1CCN(C(=O)NCCCN2CCCC2=O)CC1 | % | 99.5 |
| N=c1n(CC(=O)O)c2ccccc2n1Cc1ccccc1 | % | 108 |
| CC1(C)CC(=O)C(=CNCC(N)=O)C(=O)C1 | % | 87.2 |
| CCn1c(N2CCCC(C(=O)NC3CC3)C2)nc2ccccc21 (stereo not shown) | % | 106 |
| Cc1cc2c(o1)c1cnn(CC(=O)N3CCCCC3)c(=O)c1n2C | % | 90.5 |

====

Test: in vitro
Conditions: human, hela cells, % viability
Threshold 90%. viability at 28.5 h, 10 µM below it: 1.0. viability at 28.5 h, 10 µM at it or above: 0.0.

| molecule | classification |
| --- | --- |
| Cc1cccn2cc(CC(=O)NCCNC(=O)OC(C)(C)C)nc12 | 0.0 |
| COC(=O)c1ccc(N2C(=O)CC(N3CCC(n4c(=O)[nH]c5ccccc54)CC3)C2=O)cc1 (stereo not drawn) | 0.0 |
| CCn1ncc(CN2CCCC(CCC(=O)N3CCN(C)CC3)C2)c1C (stereo not drawn) | 1.0 |
| CNCCc1nc(-c2cccs2)c2ccccn12 | 0.0 |
| c1ccc2c(c1)/C(=N/OCCCN1CCCCC1)CC21CCCCC1 | 0.0 |
| COc1ccccc1NC(=O)CCn1c(C(F)F)cc2cccnc21 | 0.0 |
| O=C(/C=C/c1ccc(Cl)cc1Cl)NCCNc1c(Cl)cccc1[N+](=O)[O-] | 0.0 |
| CC1CN(Cc2c(C(C)C)[nH]c3ncccc23)CC(C)O1 (stereo not drawn) | 0.0 |
| OCCOc1cccnc1OCCN1CCCC1 | 1.0 |
| CCc1c(C)nc2ccccc2c1SC[C@H](NC(C)=O)C(=O)O [CBK153459T] | 0.0 |
| O=C(O)c1cc(NCc2cccc(F)c2F)n[nH]1 | 0.0 |
| COc1cccc2c1cc(C(=O)NCCCC1CCOC1)n2C (stereo not drawn) | 0.0 |
| O=C(O)c1cccn1-c1cc(Cl)cc(Cl)c1 | 0.0 |
| CN(C)CCN(C)[C@H]1CCCC[C@@H]1N(C)C(=O)Cc1ccc(Br)cc1 [CBK023819C] | 0.0 |
| O=C(CSc1nnc(-c2ccccc2F)n1-c1ccccc1)Nc1ccc2cn[nH]c2c1 | 1.0 |
| COc1ccc(N2CCN(c3cc(-c4ccccc4OCc4ccccc4)ncn3)CC2)cc1OC | 0.0 |
| Cc1cccc(N2CCOC3(CCCC3)C2)n1 | 1.0 |
| COc1ccc(-n2cc(-c3ccc(F)cc3)nn2)cc1 | 0.0 |
| Cc1ccc(CNC(=O)Cn2nnc(-c3ccc(CNCC(F)(F)F)cc3)n2)cc1 [CBK153204T] | 0.0 |
| COC(=O)CCN(Cc1nnc(C2CC2)o1)C(C)C | 1.0 |
| CC[C@H](Cn1ncc2ccccc2c1=O)NC(=O)c1ccco1 | 1.0 |
| Cc1cc(C)n(CCC(=O)N2C[C@@H]3CCCCN(CC4CC4)[C@@H]3C2)n1 | 0.0 |
| COc1ccc(S(=O)(=O)N(C)c2ccc(N3CCNCC3)c3ccccc23)cc1 [CBK022404C] | 0.0 |
| COc1ccc(C2=NNC(=O)C(c3ccc(OC)cc3)C2)cc1 (stereo not drawn) | 0.0 |
| Cc1ccc(C(=O)Nc2ncn(CC(=O)N3CCCCCC3)n2)s1 | 0.0 |
| Cc1ccc2nsnc2c1NC(=O)CN1CCCCC1 | 0.0 |
| Cc1nn(C)c(Cl)c1S(=O)(=O)Nc1ccnn1C | 1.0 |

====

Assay: in vitro
Conditions: human, hela cells, % viability

| molecule | unitAbbreviation | viability at 28.5 h, 10 µM |
| --- | --- | --- |
| COCCN(Cc1cnn(C)c1)C(=O)c1ccc2oc(C)cc2c1 [CBK307059] | % | 96.6 |
| O=C(Cn1cc(C(=O)NC2(c3ccccc3)CCCC2)ccc1=O)NC1CCCCC1 [CBK285986] | % | 82.6 |
| O=[N+]([O-])c1ccccc1S(=O)(=O)N1CCN(S(=O)(=O)c2ccc(F)cc2)CC1 [CBK264236] | % | 92.7 |
| O=C(Cn1c(C2CCNCC2)cc2cccnc21)NC1CCCC1 [CBK285002] | % | 104 |
| CC(C)Cc1noc(CN2CCC(C(=O)NCc3ccco3)CC2)n1 [CBK305995] | % | 107 |
| CN1CCN(c2nc3ccccn3c(=O)c2/C=C2\SC(=S)N(CCc3ccccc3)C2=O)CC1 [CBK263131] | % | 110 |
| C/C(=N/O)c1ccc(OCCCOc2ccc(/C(C)=N/O)cc2)cc1 [CBK262075] | % | 95.2 |
| CC(C)Nc1nccnc1-c1cccc(O)c1 [CBK037089] | % | 97.3 |
| CCN(CC)CCN(Cc1cc2ccc(C)cc2[nH]c1=O)C(=O)Nc1ccc(Cl)cc1 [CBK068680] | % | 84.9 |

====

Assay: in vitro
Conditions: human, hela cells, % viability

| compound | viability at 28.5 h, 10 µM / % |
| --- | --- |
| COc1ccc(S(=O)(=O)N2CCC(C(=O)NC3(C(=O)O)CCCCC3)CC2)cc1OC | 95.5 |
| CCOC(=O)C1(NC(=O)C2(Oc3cccnc3C)CCNCC2)CCC1 | 89.9 |
| [N-]=[N+]=NC1C2OCC(O2)C(OCc2ccccc2)C1O (stereo not shown) | 90.1 |
| O=C(c1ccccn1)N1CCN(CCc2ccccc2)CC1 | 99.1 |
| CC(=O)N1C[C@@H](c2ccsc2)[C@@H]2CN(CC3CCCCC3)CC[C@@H]21 | 93 |
| O=C(c1cnn(-c2cccc(Cl)c2)c1)N1CCOCC1CC(F)F (stereo not shown) | 95.5 |
| CCCS(=O)(=O)N1CCN(C(=O)COc2ccc3ccccc3c2)CC1 | 95.4 |
| Cc1ccc(OCCSc2nc3ccccc3n2CC(=O)O)c(C(C)C)c1 | 105 |
| CN1CCCCC[C@@H]2[C@@H]1[C@H](c1ccccc1)CN2C(=O)CN1CCCCCC1=O | 87.5 |
| COc1cc(F)cc(OC2CCNCC2)c1NC(=O)c1coc2c1C(=O)CCC2 [CBK050351T] | 91.5 |
| O=C(N[C@@H]1COCC[C@@H]1OCC1CC1)c1cccc2c1NCCC2 | 102 |
| NC1=C(N)OC(Oc2ccccc2C(F)(F)F)=NN1 | 57.2 |
| COc1ccc(S(=O)(=O)N2CCCC(C(=O)NCc3ccc4c(c3)OCO4)C2)cc1Cl (stereo not shown) | 89.1 |
| COc1ccc(CN2CCN(Cc3ccco3)CC2)cc1OCc1ccccc1 | 105 |
| NS(=O)(=O)c1ccc(NC(=S)NNC(=O)c2cc(Br)ccc2Cl)cc1 | 89.3 |
| Cc1ncccc1COC(=O)N1c2ccc(F)cc2CCC1C (stereo not shown) | 92.2 |
| COc1ccccc1C(C)CN(C)C (stereo not shown) [CBK011948C] | 91.2 |
| COC(=O)c1ccc(CNc2nc(OC)cc(OC)n2)cc1 | 95 |
| Fc1ccc(CCN2CCC(c3nc(-c4cccnc4)no3)CC2)cc1 | 118 |
